# system name: T1, human MSLN on the cell surface (human, UniProt Q13421 296-598)
# T1 construct: on cells stands the processed GPI-anchored 40 kDa MSLN; also called membrane MSLN; MSLN on H838, OVCAR-8 (OVCAR8), OVCAR-8 K1/C8, SK-OV-3 cells
# T1 sequence (Q13421 other isoform, or with tags, fused parts or gaps limits assumed): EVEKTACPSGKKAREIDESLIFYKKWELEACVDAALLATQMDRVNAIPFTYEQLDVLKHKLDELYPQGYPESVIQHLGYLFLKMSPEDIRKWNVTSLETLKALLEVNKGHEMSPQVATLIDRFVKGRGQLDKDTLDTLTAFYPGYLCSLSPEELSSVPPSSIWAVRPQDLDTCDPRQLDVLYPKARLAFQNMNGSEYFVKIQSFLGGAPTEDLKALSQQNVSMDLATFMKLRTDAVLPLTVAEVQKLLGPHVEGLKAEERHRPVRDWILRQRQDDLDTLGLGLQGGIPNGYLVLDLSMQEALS
# experimental details: high content imaging, surface staining of OVCAR8 cells
measurement kind: Maximum Value (arbitrary units)
The answer is to be given in arbitrary units; state only the numeric part.

Task: Write down Maximum Value (arbitrary units) measured for item MSLNB571 (antibody, V domains shown, mAb; also called MSNB571) VH: QVQLQQSGPGLVKPSQTLSLTCAISGDSVSSTSVAWNWIRQSPSGGLEWLGRIYYRSKWYNDYALSVKSRMTINPDTASNQFSLQLNSVTPEDTAVYYCSRGIVGALDYWGQGTLVTVSS VL: DIVMTQTPLSLPVTPGGPASISCRSSQSLMYSNGYNHLDWYLQKPGQSPQFLIHLGSNRVSGVPDRFSGSGSGTDFTLKISRVEAEDVGVYYCMQALRTPYTFGQGTKVDIK
Result: 1.46e+07

Task: Write down Maximum Value (arbitrary units) measured for item MSLNB568 (antibody, V domains shown, mAb; also called MSLNB568.001; MSNB568) VH: QVQLQQSGPGLVKPSQTLSLTCGISGDSVSSSSVAWNWIRQSPSRGLEWLGRTYYRSKWYNDYAISVRSRVTINPDTSKNQFSLQLNSVTPEDTAVYYCSRGVVGALDYWGQGTLVTVSS VL: DIVMTQSPLSLTVTPGEPASISCRSSQSLLFTNGYNSLDWYLQKPGQSPQFLIYLVSNRASGVPDRFSGSGSGTDFTLKISRVEAEDVGVYYCMQALRTPYTFGQGTKVEIK
Result: 1.7e+07

Task: Write down Maximum Value (arbitrary units) measured for item MSLNB569 (antibody, V domains shown, mAb; also called MSLNB569.001; MSNB569) VH: QVQLQQSGPGLVKPSQTLSLTCAISGDSVSSTRAAWNWIRQSPSRGLEWLGRTYYRSKWYNDYTVSVKSRITINPDTSKNQFSLHLNSVTPEDSAVYFCARGNVGRVDFWGQGTLVTVSS VL: EIVMTQSPLSLPVTPGEPASISCRSSQSLLHSDGYNYLDWYLQKPGQSPQLLIYLGSNRASGVPDRFSGSGSDTDFTLKISRVEAEDVGVYYCMQGLRTPLTFGPGTKVDIK
Result: 1.6e+07

Task: Write down Maximum Value (arbitrary units) measured for item MSNB71 (antibody, V domains shown, mAb from Ablexis mouse; also called MSNB71.004) VH: QVQLQQSGPGLVMSSQTLSLTCAISGDSVSSSSVAWNWIRQSPSRGLQWLGRTYFRSKWYYDYAVSVKSRITINPDTSKNQFSLQLNSVTPEDTAVYYCSRGIVGALDYWGQGTLVTVSS VL: DIVMTQSPLSLPVTPGEPASISCRSSQSLLFTNGYDSLDWYLQKPGQSPQLLIYLVSNRASGVPDRFSGSGSGTEFTLKISRVEADDVGVYFCMQGIRTPFTFGPGTKLEIK
Result: 1.54e+07

Task: Write down Maximum Value (arbitrary units) measured for item MSNB124 (antibody, V domains shown, mAb) VH: QVQLQQSGPGLVKPSQTLSLTCAISGDSVSSNSVAWHWIRQSPSRGLEWLGRTYHRSKWYNDYAVSVKSRITINPDTSKNQFSLQLNSVTPEDTAVYYCARQILGALDYWGQGTLVTVSS VL: DIVMTQTPLSLPVTPGEPASISCRSSQSLQFGNGNYLDWYLQKPGQSPQLLIYLGSNRASGVPDRFSGSGSGTDFTLKISRVEAEDVGVYYCMQVLQIPFTFGPGTKVDIK
Result: 1.46e+07

Task: Write down Maximum Value (arbitrary units) measured for item MSLNB570 (antibody, V domains shown, mAb; also called MSNB570) VH: QVQLQQSGPGLVKPSQTLSLTCAISGDSVSSTSVAWNWIRQSPSGGLEWLGRTYYRSKWYNDYALSVKSRMTINPDTASNQFSLQLNSVTPEDTAVYYCSRGIVGALDYWGQGTLVTVSS VL: DIVMTQTPLSLPVTPGGPASISCRSSQSLMYSNGYNHLDWYLQKPGQSPQFLIHLGSNRVSGVPDRFSGSGSGTDFTLKISRVEAEDVGVYYCMQALRTPYTFGQGTKVDIK
Result: 1.39e+07
